Molecular target: human GLP-1 receptor (human, UniProt P43220 24-463)
Assay: cell-based or functional assay
Numbered stars: 1 amine (or outer) side, 2 acyl side, 3 side chain; on linkers, the order of the positions; unused ones are H or OH. Square brackets hold non-standard residues; d marks the D form. Side chains are listed from the residue outwards. Ends that are not written are not given here. * marks the point of attachment. Decanoyl(10-(4-HOOC-PhO)) = O=C(O)c1ccc(OCCCCCCCCCC(=O)*)cc1; γGlu = O=C(O)[C@H](CCC(=O)[*:2])N[*:1]; C14 diacid = O=C(O)CCCCCCCCCCCCC(=O)*; AEEA = NCCOCCOCC(=O)O; Aib = CC(C)(N)C(=O)O
Property: EC50/pM (in vitro potency, cAMP formation, AlphaScreen); scope: individual binders
parameter measured: EC50/pM (in vitro potency, cAMP formation, AlphaScreen) (pM)

In [3]: df
Out[3]:
                                     binder  measurement
0  HAEGTFTSDVSSYLEK([γGlu-AEEA-AEEA-C14 diacid])QAVRK([γGlu-AEEA-AEEA-C14 diacid])FIEWLVQGRG (also called 20)           67
1  H[Aib]EGTFTSDVSSYK([AEEA-AEEA-γGlu-Decanoyl(10-(4-HOOC-PhO))])EEQAARK([AEEA-AEEA-γGlu-Decanoyl(10-(4-HOOC-PhO))])FIEWLVG          468
2  HAEGTFTSDVSSYLEEQK([γGlu-AEEA-AEEA-C14 diacid])VRK([γGlu-AEEA-AEEA-C14 diacid])FIAWLVG (also called 30)         3000
3  HAEGTFTSDVSSYLEK([γGlu-AEEA-AEEA-C14 diacid])QAARK([γGlu-AEEA-AEEA-C14 diacid])FIAHLVG (also called 14)           42

Entry source: patent US9266940
